Biological target: pooled human IgG
readout_label: Enzyme Activity Endpoint Assay (purified): IgG (ng/µL)

protein | result
PRT-634 (protein) MQITSVWTKGVTPLTPEQFRYNNYDVIHAPYKPNQGWYDITKAFDGKDNLLCGAATAGNMLHWWFDQNKTEIEAYLSKHPEKQKIIFNNQELFDLKAAIDTKDSQTNSQLFNYFRDKAFPNLSARQLGVMPDLVLDMFINGYYLNVFKTQSTDVNRPYQDKDKRGGIFDAVFTRGDQTTLLTARHDLKNKGLNDISTIIKQELTEGKALALSHTYANVSISHVINLWGADFNAEGNLEAIYVTDSDANASIGMKKYFVGINAHGHVAISAKKIEGENIGAQVLGLFTLSSGKDIWQKLSLEHHHHHH | 0
PRT-274 (protein) MVTSVWTKGVTPPTDFIYGEDVLHAPYKAGQGWYDITKTFNGKDNLLCGAATAGNMLHWWFDQNKEQIENYLKKHPEKQKIIFNNQELFDLKAAIDTKDSQLDSKLFDYFKEKAFPNLSTKHLGVFPDHVIDMFINGYRLSLLNHGPTPVKRGSKDKRGGIFDAVFTRGVQSKLLTNRHDLKNKTLKEISDLIKQELTEGKALGISHTYANVRINHVINLWGADFDAEGNLEAIYVTDSDTNPSIGMKKYFVGVNSSGKVAISAKEIEEDNIGAQVLGLFTLSTGQDIWNQTN | 0
PRT-629 (protein) MQITSVWTKGVTPLTPEQFRYNNEDVIHAPYLAHQGWYDITKAFDGKDNLLCGAATAGNMLHWWFDQNKEEIEAYLKKYPEKQKIIFNNQELFDLKAAIDTKDSQTNSQLFNYFRDKAFPNLSARQLGVMPDLVLDMFINGYYLNVFKTQSTDVNRPYQDKDKRGGIFDAVFTRGDQTTLLTARHDLKNKGLNDISTIIKQELTEGRALALSHTYANVSISHVINLWGADFNAEGNLEAIYVTDSDANASIGMKKYFVGINAHGHVAISAKKIEGENIGAQVLGLFTLSSGKEIWQKLSLEHHHHHH | 161
PRT-58 (protein) MANQEIRYSEVTPYHVTSVWTKGVTPPANFTQGEDVFHAPYVANQGWYDINKTFNGKDDLLCGAATAGNMLHWWFDQNKEYIDRYLKEHPEKQKINFNGEQMFDVKEAIDTKNHQLDSKLFEYFKEKAFPYLSTKHLGVFPDLVLDMFINGYRLSLTNHGPTPVKEGSKDPRGGFFDDVFTRGDQSKLLTSRHDFKEKNLKEISDLIKKELTEGKALGLSHTYANVRINHVINLWGADFDSNGNLKAIYVTDSDSNASIGMKKYFVGVNSAGKVAISAKEIKEDNIGAQVLGLFTLSTGQDSWNQTN | 125
